Answer each item with its documented growth.
Tested on: RXF 393 renal
Experiment: NCI-60 one-dose screen, 48 h (100 = growth as untreated, 0 = no growth, -100 = all killed)
Conditions: 10 µM unless noted
This is part of a sample that, as a whole, favours compounds with a hit. Of some 83,000 tested, about 20% had one in any assay. The source made the active and inactive calls. The calls were made as follows: active = growth percent below 10; inactive = the rest.

Below: 4 compounds and their reported growth.
                                   compound  endpoint      readoutvalue
0  COC(=O)CCCCCCN=Cc1c(O)c(O)c(C(C)C)c2cc(C)c(-c3c(C)cc4c(C(C)C)c(O)c(O)c(C=NCCCCCCC(=O)OC)c4c3O)c(O)c12    growth  36.2% (inactive)
1  O=C(CC(O)c1ccncc1)c1ccccc1 (stereo unspecified)    growth   -69.4% (active)
2  C=C1C(=O)O[C@H]2[C@H]1CC/C(Cn1cc(-c3ccccc3C(F)(F)F)nn1)=C\CC[C@@]1(C)O[C@@H]21    growth   -72.3% (active)
3  O=C(CN1CCN(c2cc3c(cc2F)c(=O)c(C(=O)O)cn3C2CC2)CC1)Nc1ccc(C(=O)/C=C/c2ccccc2)cc1    growth  41.7% (inactive)

Parameter requested: growth. Apply to each item below.
1. CCCCCc1c(C)[nH]c(/C=c2\[nH]/c(=C3/C=c4ccccc4=N3)cc2OC)c1C
2. COc1ccc(C(=O)/C=C/c2ccc(/C=C/c3cc(OC)c(OC)c(OC)c3)cc2)cc1
3. CCOc1ccc(/C=C/C=N/NC(N)=S)cc1
4. CC(C)(C)OC(=O)N[C@@H](Cc1ccccc1)C(=O)N(Cc1ccccc1)C1(C(=O)NCc2ccccc2)CCN(Cc2ccccc2)CC1
5. O=C1N=C(c2c(-c3[nH]c(=O)c4ccc(Br)cc4c3O)c(O)c3ccccc3c2O)C(=O)c2cc(Br)ccc21
6. COc1ccc(S(=O)(=O)N2CCN(c3cc4c(cc3F)c(=O)c(C(=O)O)cn4C3CC3)CC2)c(OC)c1
7. CC(=O)N1Cc2ccccc2C(C)Cc2cc(Cl)ccc21 (stereo unspecified)

### Response
-46.7% (active)
71.3% (inactive)
-0.439% (active)
61.9% (inactive)
-76.1% (active)
102% (inactive)
124% (inactive)

----------
Answer each item with its documented growth.
Tested on: HCC-2998 colon
Test: NCI-60 one-dose screen, 48 h (100 = growth as untreated, 0 = no growth, -100 = all killed)
Conditions: 10 µM unless noted
Compounds without any hit were thinned out: in the full panel of roughly 83,000, 20% have a hit.
Give bare numbers, in %.

Below: 8 compounds and their reported growth.
In [3]: df
Out[3]:
                                   compound  readoutvalue
0  FC(F)(F)c1cccc(-n2nnc3cnc(Nc4ccc(N5CCCCC5)cc4)nc32)c1          88.3
1  O=C(CSc1nc(-c2ccc(Cl)cc2)cn1-c1ccc(Cl)cc1)c1ccc(Br)cc1          89.6
2  C[C@]12CC[C@@H]3c4cc(O)c(O)cc4CC[C@H]3[C@@H]1CC[C@@H]2O          91.4
3  Cc1cc(C)c(S(=O)(=O)N2CCN(c3cc4c(cc3F)c(=O)c(C(=O)O)cn4C3CC3)CC2)c(C)c1          47.7
4                COc1cc(NC(=O)CCl)ccc(=O)c1           105
5  CCn1cc(C(=O)O)c(=O)c2cc(F)c(N3CCN(S(=O)(=O)c4ccc(OC)c(OC)c4)CC3)cc21           104
6  O=C(c1c[nH]c2ccccc12)C(Sc1nc2ccccc2c(=O)[nH]1)c1ccccc1 (centres undefined)           112
7  CCOP(=O)(CCN1CCN(CCCCCOc2cc3c(cc2OC)C(=O)N2CCC[C@H]2C=N3)CC1)OCC          80.8

Parameter requested: growth. Apply to each item below.
1. CC/C=C\C/C=C\C[C@H]1C/C=C2/C(=O)C=C[C@H]2C/C=C\CCC(=O)O1
2. O=C(c1ccncc1)N1N=C(c2ccc(Cl)cc2)CC1c1c[nH]c2ccccc12 (centres undefined)
3. Cc1sc2nc(CSc3nnc(-c4ccco4)o3)[nH]c(=O)c2c1C
4. CCN(Cc1ccccc1)c1ccc(SC#N)cc1
5. COc1cc2nc(N3CCC[C@@H](NC4=CC(=O)c5ccccc5C4=O)C3)nc(N)c2cc1OC
6. COc1cc(OC)cc(-c2n[nH]nc2-c2ccc3c(c2)OCO3)c1
7. O=C(Cc1c(F)cccc1Cl)Nc1ccc(S(=O)(=O)Nc2ncccn2)cc1
8. C=C1C(=O)O[C@H]2[C@H]1CC/C(COC(=O)NCCc1ccc(OC)cc1)=C\CC[C@@]1(C)O[C@@H]21

### Response
1: -59.2; 2: 105; 3: 124; 4: 94.1; 5: 106; 6: 31.9; 7: 97.3; 8: 71.1

Parameter requested: growth. Apply to each item below.
1. CCOC(=O)c1cc(/C(=N\O)c2cc(OC)c(OC)c(OC)c2)n2cc(C)cc(C)c12
2. CCCCCCc1nc2c(c(C)nn2-c2ccccc2)c2c1CCCCC2
3. CCCCC(N)(C(=O)O)C1CCCC1 (centres undefined)
4. COc1ccc(NC(=O)CSc2nc3ccc(Cl)cc3c(=O)n2-c2ccccc2C(F)(F)F)c(OC)c1OC
5. CCOc1ccc(/C=C/C=N/NC(N)=S)cc1
6. Cc1oc2ncnc(Nc3ccccc3)c2c1C(=O)NCCO
7. C=CCN=C1NC(=O)/C(=C/c2cc(C(C)(C)C)c(O)c(C(C)(C)C)c2)S1

### Response
[67.5, 106, 112, 99, 70.1, 103, 89.8]

Parameter requested: growth. Apply to each item below.
1. CC(Br)C(O)c1cc2c(cc1Br)OCO2 (centres undefined)
2. COc1ccc(/C=C(\C#N)c2ccc([N+](=O)[O-])cc2)c2ccccc12
3. Cc1sc(N=Nc2ccc(N(C)C)cc2)[n+]([O-])c1C
4. CN=S(=O)(NC(=O)c1ccc(Cl)cc1Cl)c1ccc(Br)s1 (centres undefined)
5. Cc1cc(N/C=c2\sc3ncnn3c2=O)no1
6. O=C(Nc1ccc(OCc2nnc(-c3ccc(Cl)cc3)o2)c(F)c1)Nc1ccc(Cl)c(Cl)c1

### Response
1: 111; 2: 80; 3: 112; 4: 111; 5: 96.9; 6: 85.4

----------
Answer each item with its documented growth.
Tested on: PC-3 prostate
Test: NCI-60 one-dose screen, 48 h (100 = growth as untreated, 0 = no growth, -100 = all killed)
Conditions: 10 µM unless noted
The panel holds about 83,000 compounds, 20% with a hit somewhere; the sample as a whole holds those more often.
Give bare numbers, in %.

Below: 4 compounds and their reported growth.
compound	testSystem	readoutValue
CC1Cc2c(N(C)C)ncnc2N(C)c2ccc(O)cc21 (centres undefined)	PC-3 prostate	72.9
CC(C)[C@H](CO)Nc1nc(Nc2ccc(C(=O)NCCNS(=O)(=O)c3cccc4c(N(C)C)cccc34)c(Cl)c2)c2ncn(C(C)C)c2n1	PC-3 prostate	17
COc1cc(C(=O)N2CCN(C(=O)c3ccco3)CC2)c(N)cc1OCc1ccccc1	PC-3 prostate	98.5
COc1cc(OC)c(C(=O)/C=C/c2ccc(C#N)cc2)c(OC)c1	PC-3 prostate	37.4

Parameter requested: growth. Apply to each item below.
1. COc1ccc(-n2cnc3c(sc4ncc(Cl)cc43)c2=O)cc1
2. Cc1ccccc1C(=O)c1ccccc1C(=O)O

### Response
1. 83.1
2. 96.8

----------
Tested on: SF-295 CNS
Assay: NCI-60 one-dose screen, 48 h (100 = growth as untreated, 0 = no growth, -100 = all killed)
Details: 10 µM unless noted
Description: Cells are grown in 96 well plates and exposed to the test compound for 48 hours. Compounds are tested at a single concentration, which is 10^-5 M for most compounds. The reported endpoint is percent growth (GI% or GIPRCNT), where numbers from 0 - 100% represent growth inhibition, and numbers from -100% - 0 represent cell death. For example, a value of 40 represents 60% growth inhibition. A value of 0 means no net growth occurred over the course of the experiment. […]
This is part of a sample that, as a whole, favours compounds with a hit. Of some 83,000 tested, about 20% had one in any assay.
Answer each item with its documented growth.
Answers are plain numbers, in %.

>>> print(df.to_string())
                                   molecule  readoutvalue
0       Cc1cc(-c2ccccc2)c(C)n1Cc1ccc(Cl)cc1          39.7
1  COc1cc(NC(=O)CSc2nc3ccc(C)cc3c(=O)n2-c2ccccc2)cc(OC)c1OC          92.2
2  CCN(Cc1ccc(CN(CC)C(=O)C(Br)Br)cc1)C(=O)C(Br)Br          45.9
3  Nc1cccc2c1CN(C1CCC(=O)NC1=O)C2=O (centres undefined)           116
4  C=C1C(=O)O[C@H]2[C@H](O)[C@@H](C)CCC/C(C)=C/CC[C@@]3(C)O[C@@H]3C[C@@H]12          89.4
5  COc1ccc(OC)c(/C=C2\Oc3cc(OCCN4CCCC4)ccc3C2=O)c1           101

Parameter requested: growth. Apply to each item below.
1. COC12CC(=O)C(C(C)=O)=C(O)C1(C)c1c(O)c(C)c(O)c(C(C)=O)c1O2 (centres undefined)
2. COc1cccc(/C=C/C(=O)c2sc(Nc3ccc(O)cc3)nc2C)c1

### Response
1. 13.3
2. 104

Parameter requested: growth. Apply to each item below.
1. COc1cc(C(=O)/C=C/c2cc(C(=O)c3cc(OC)c(OC)c(OC)c3)ccc2OC)ccc1N
2. COc1ccc(-c2cn[nH]c2-c2cc(OC)c3c(c2)OCO3)cc1
3. O=C1CCCCN1CCCCC#Cc1ccccc1C#Cc1ccccn1

### Response
1. 9.88
2. -10.4
3. 109
